- TARGET_UNDER_TEST: NOP receptor (Homo sapiens)
- TEST_METHOD_NOTES: [35S]GTPγS binding stimulation
- Format: biochemical
- EXPERIMENTAL_CONTEXT: compared to standard agonist N/OFQ
Some compounds, each annotated with its measured [35S]GTPγS NOP % stim.
Reply with just the number (in %).

Below, each entry is followed by its recorded [35S]GTPγS NOP % stim result.
CC(C)[C@@H](CN1CCC(c2cccc(O)c2)CC1)NC(=O)[C@H]1Cc2ccc(O)cc2CN1 | 0
CC(C)[C@@H](CN1CCC(c2cccc(O)c2)CC1)NC(=O)[C@H]1Cc2ccccc2CN1 | 7.0
CC(C)[C@@H](CN1CC[C@@](C)(c2cccc(O)c2)[C@@H](C)C1)NC(=O)[C@H]1Cc2ccc(O)cc2CN1 [JDTic, reference compound] | 0
C[C@H]1CN(C[C@H]2Cc3ccccc3CN2)CC[C@@]1(C)c1cccc(O)c1 | 0

Dear colleague, I am looking for the recorded [35S]GTPγS NOP % stim of the following compound: CC(C)[C@@H](CN1CCC(c2ccccc2)CC1)NC(=O)[C@H]1Cc2ccc(O)cc2CN1
18.3

// query: Cc1cccc2c1CC[C@H](CN1CCC(c3c(Cl)cccc3Cl)CC1)C[C@@H]2O [SB-612111, reference compound]
0

* * *

- TARGET_UNDER_TEST: KOP receptor (Homo sapiens)
REPORTED_METRIC: pKi
Give only the number. pKi is defined as minus log10 of concentration in molar units.

The examples below pair each entry with its known result.
CC(C)[C@@H](CN1CCC(c2ccccc2)CC1)NC(=O)[C@H]1Cc2ccc(O)cc2CN1 [Compound 8] | 8.67
CC(C)[C@@H](CN1CCC(c2cccc(O)c2)CC1)NC(=O)[C@H]1Cc2ccccc2CN1 [Compound 7] | 7.00
C[C@H]1CN(C[C@H]2Cc3ccc(O)cc3CN2)CC[C@@]1(C)c1cccc(O)c1 [Compound 4] | 6.39
C[C@H]1CN(C2CCCCCCC2)CC[C@@]1(C)c1cccc(O)c1 [Compound 3] | 7.17

Please find the next molecule below.
Given the entry C[C@H]1CN(C[C@H]2Cc3ccccc3CN2)CC[C@@]1(C)c1cccc(O)c1 [Compound 5] , what pKi was observed with KOP receptor (Homo sapiens)?
7.71

* * *

// Ki collected for UniProt:P41143
Please state the figure in nM; there is no need to write the unit.

Worked examples, 3 compounds total:
C[C@H]1CN(C2CCCCCCC2)CC[C@@]1(C)c1cccc(O)c1 [Compound 3] | 2910
C[C@H]1CN(C[C@H]2Cc3ccccc3CN2)CC[C@@]1(C)c1cccc(O)c1 [Compound 5] | 38.8
CC(C)[C@@H](CN1CCC(c2cccc(O)c2)CC1)NC(=O)[C@H]1Cc2ccccc2CN1 [Compound 7] | 1400

Then there is this compound:
Quick check: Ki of C[C@H]1CN(C[C@H]2Cc3ccc(O)cc3CN2)CC[C@@]1(C)c1cccc(O)c1 [Compound 4] ?
205

* * *

- TARGET_UNDER_TEST: MOP receptor (Homo sapiens)
- TEST_METHOD_NOTES: biochemical
The entries below come with measured EC50 values attached.

These solved cases illustrate the format of a correct answer.
CC(C)[C@@H](CN1CCC(c2cccc(O)c2)CC1)NC(=O)[C@H]1Cc2ccc(O)cc2CN1 | > 10 µM
C[C@H]1CN(C[C@H]2Cc3ccccc3CN2)CC[C@@]1(C)c1cccc(O)c1 | > 10 µM

Kindly review the next compound as well.
// lookup EC50 for C[C@H]1CN(C[C@H]2Cc3ccc(O)cc3CN2)CC[C@@]1(C)c1cccc(O)c1
> 10 µM
